# methodDescription: PAMPA (parallel artificial membrane permeability assay)
# Format: in vitro ADME
# experimentalSetup: PAMPA; membrane permeation rate (Pe); 50 mM MOPSO buffer pH 6.5 with 5.0% glycocholic acid, 37° C., 18 hours; read-out: iPAMPA Pe
Positions of bridges follow the written chain, without caps; N, C: chain ends. Non-standard residues stand in square brackets, D forms with d. Residues, ends and D or L forms follow the SMILES beside them. *: point of attachment. NMeF = CN[C@@H](Cc1ccccc1)C(=O)O; NMeL = CN[C@@H](CC(C)C)C(=O)O; NMeV = CN[C@H](C(=O)O)C(C)C; NMeA = CN[C@@H](C)C(=O)O; Piperidide = C1CCN(*)CC1; Sar = CNCC(=O)O
metric: Papp at 18 hours, 50 µM (×10⁻⁶ cm/s)
Write the value in ×10⁻⁶ cm/s as a bare number.

Item: CC[C@H](C)[C@H](NC(=O)[C@H](C)N(C)C(=O)[C@H](Cc1ccccc1)N(C)C(=O)[C@H](CC(C)C)N(C)C(=O)[C@@H]1CC(=O)N[C@@H](C)C(=O)N(C)[C@@H](Cc2ccccc2)C(=O)N(C)[C@@H](CC(C)C)C(=O)N[C@@H]([C@@H](C)O)C(=O)N(C)CC(=O)N(C)[C@@H](Cc2ccccc2)C(=O)N1)C(=O)N1CCCCC1 [DP-918] (A[NMeF][NMeL]T[Sar][NMeF]D[NMeL][NMeF][NMeA]I-Piperidide; lactam N-7) | Papp at 18 hours, 50 µM: 5.3

Item: C=C1CCC(=O)N[C@@H](CC(C)C)C(=O)N2CCC[C@H]2C(=O)N(C)[C@@H](C(C)C)C(=O)N[C@@H](Cc2ccccc2)C(=O)N(C)[C@@H](Cc2ccccc2)C(=O)N(C)[C@@H](CC(C)C)C(=O)N[C@@H](C)C(=O)N(C)[C@@H]([C@@H](C)CC)C(=O)N[C@H](C(=O)N2CCCCC2)Cc2ccc1cc2 | Papp at 18 hours, 50 µM: 0.86

Item: CC(C)C[C@H]1C(=O)N(C)[C@@H](C(C)C)C(=O)N[C@@H](C(C)C)C(=O)N(C)CC(=O)N(C)[C@@H](C)C(=O)N[C@@H]([C@@H](C)O)C(=O)N(C)[C@@H](C)C(=O)N[C@H](C(=O)N2CCCCC2)CC(=O)N(C)[C@@H](C)C(=O)N(C)[C@@H](C)C(=O)N(C)[C@@H](Cc2ccccc2)C(=O)N[C@@H](C)C(=O)N1C [DP-410] ([NMeA][NMeA][NMeF]A[NMeL][NMeV]V[Sar][NMeA]T[NMeA]D-Piperidide; lactam N-12) | Papp at 18 hours, 50 µM: 1.4

* * *

# methodDescription: Metabolic stability in human hepatic microsome
# Format: in vitro ADME
# experimentalSetup: microsomes, pH 7.4; human hepatic microsome, NADPH(+); read-out: CL NADPH(+)
Starred links: 1 amine or outer side, 2 acyl side, 3 side chain; linkers in the order of their positions; H or OH if unused. Positions of bridges follow the written chain, without caps; N, C: chain ends. Non-standard residues stand in square brackets, D forms with d. Residues, ends and D or L forms follow the SMILES beside them. *: point of attachment. NMePhe(3-Cl) = CN[C@@H](Cc1cccc(Cl)c1)C(=O)O; NMeF = CN[C@@H](Cc1ccccc1)C(=O)O; NMeGABA = CN(CCCC(=O)[*:2])[*:1]; NMeL = CN[C@@H](CC(C)C)C(=O)O; NMeV = CN[C@H](C(=O)O)C(C)C; NMeA = CN[C@@H](C)C(=O)O; Piperidide = C1CCN(*)CC1; dNMeA = CN[C@H](C)C(=O)O; Sar = CNCC(=O)O; tBu = CC(C)(C)*
metric: microsomal CLint at 1 uM
Write the figure, then the unit, nothing else.

Item: CC(C)C[C@@H]1NC(=O)[C@H](CC(C)C)N(C)C(=O)[C@H](C)NC(=O)[C@H](C(C)C)N(C)C(=O)CN(C)C(=O)[C@H](Cc2ccccc2)NC(=O)[C@H]([C@@H](C)O)NC(=O)[C@H](CC(C)C)N(C)C(=O)[C@@H](C)N(C)C(=O)C[C@@H](C(=O)N2CCCCC2)NC(=O)[C@H](CC(C)C)N(C)C1=O [DP-418] ([dNMeA][NMeL]TF[Sar][NMeV]A[NMeL]L[NMeL]D-Piperidide; lactam N-11) | microsomal CLint at 1 uM: 71 µL/min/mg

Item: CC(C)C[C@@H]1NC(=O)[C@H](CC(C)C)N(C)C(=O)[C@H]([C@@H](C)O)NC(=O)CCCN(C)C(=O)C[C@@H](C(=O)N2CCCCC2)NC(=O)[C@H](COC(C)(C)C)NC(=O)[C@H](Cc2ccccc2)N(C)C1=O [DP-715] ([NMeGABA]T[NMeL]L[NMeF]S(tBu)D-Piperidide; lactam N-7) | microsomal CLint at 1 uM: 134 µL/min/mg

Item: CC(C)C[C@@H]1NC(=O)C[C@@H](C(=O)N2CCCCC2)NC(=O)[C@H]([C@@H](C)O)NC(=O)[C@H](CC(C)C)N(C)C(=O)CN(C)C(=O)[C@H](Cc2ccccc2)N(C)C(=O)[C@H](C)N(C)C1=O [DP-745] (L[NMeA][NMeF][Sar][NMeL]TD-Piperidide; lactam N-7) | microsomal CLint at 1 uM: 232 µL/min/mg

Item: CC(C)C[C@H]1C(=O)N(C)[C@@H](C)C(=O)N[C@@H]([C@@H](C)O)C(=O)N(C)[C@@H](C)C(=O)N(C)[C@@H](Cc2ccccc2)C(=O)N(C)CC(=O)N[C@H](C(=O)N(C)[C@@H](Cc2ccccc2)C(=O)N[C@@H](C)C(=O)N2CCCCC2)CC(=O)N(C)[C@@H](C)C(=O)N(C)[C@@H](C)C(=O)N[C@@H](C)C(=O)N[C@@H](Cc2ccccc2)C(=O)N1C [DP-345] ([NMeA][NMeA]AF[NMeL][NMeA]T[NMeA][NMeF][Sar]D[NMeF]A-Piperidide; lactam N-11) | microsomal CLint at 1 uM: 7 µL/min/mg

Item: CC[C@H](C)[C@@H]1NC(=O)[C@H](C)N(C)C(=O)[C@H](CC(C)C)N(C)C(=O)CCCN(C)C(=O)C[C@@H](C(=O)N2CCCCC2)NC(=O)[C@H](C)N(C)C(=O)[C@H](Cc2ccccc2)N(C)C(=O)[C@H]([C@@H](C)O)NC(=O)[C@H](Cc2ccccc2)N(C)C(=O)[C@H](CC(C)C)N(C)C1=O [DP-487] ([NMeGABA][NMeL][NMeA]I[NMeL][NMeF]T[NMeF][NMeA]D-Piperidide; lactam N-10) | microsomal CLint at 1 uM: 386 µL/min/mg

Item: CC(C)C[C@@H]1NC(=O)[C@H](CC(C)C)N(C)C(=O)C[C@@H](C(=O)N2CCCCC2)NC(=O)[C@H](C)N(C)C(=O)[C@H](CC(C)C)N(C)C(=O)[C@H]([C@@H](C)O)NC(=O)[C@H](Cc2ccccc2)N(C)C1=O [DP-738] ([NMeL]L[NMeF]T[NMeL][NMeA]D-Piperidide; lactam N-7) | microsomal CLint at 1 uM: 221 µL/min/mg

Item: CC(C)C[C@@H]1NC(=O)[C@H](CC(C)C)N(C)C(=O)[C@H](C)NC(=O)[C@H](C(C)C)N(C)C(=O)[C@H](Cc2ccccc2)NC(=O)CN(C)C(=O)[C@H]([C@@H](C)O)NC(=O)[C@H](C)N(C)C(=O)[C@H](CC(C)C)N(C)C(=O)[C@@H](C)NC(=O)C[C@@H](C(=O)N(C)[C@@H](Cc2ccccc2)C(=O)N[C@@H](C)C(=O)N2CCCCC2)NC1=O [DP-179] ([dA][NMeL][NMeA]T[Sar]F[NMeV]A[NMeL]LD[NMeF]A-Piperidide; lactam N-11) | microsomal CLint at 1 uM: 13 µL/min/mg

Item: CC[C@H](C)[C@@H]1NC(=O)[C@H](C)N(C)C(=O)[C@H]([C@@H](C)O)NC(=O)CN(C)C(=O)[C@H](C)N(C)C(=O)[C@H](C)NC(=O)[C@H](C)N(C)C(=O)[C@@H](C)N(C)C(=O)C[C@@H](C(=O)N(C)[C@@H](Cc2ccccc2)C(=O)N(C)[C@@H](Cc2ccccc2)C(=O)N[C@@H](C)C(=O)N2CCCCC2)NC(=O)[C@H](Cc2ccccc2)N(C)C1=O [DP-508] ([dNMeA][NMeA]A[NMeA][Sar]T[NMeA]I[NMeF]D[NMeF][NMeF]A-Piperidide; lactam N-10) | microsomal CLint at 1 uM: 11 µL/min/mg

Item: CC[C@H](C)[C@H](NC(=O)[C@H](CC(C)C)N(C)C(=O)[C@@H]1CCCN1C(=O)[C@@H](NC(=O)[C@H](C)N(C)C(=O)[C@@H]1CC(=O)N[C@@H](C)C(=O)N(C)[C@@H](CC(C)C)C(=O)N(C)[C@@H](Cc2cccc(Cl)c2)C(=O)N[C@@H](C(C)C)C(=O)N(C)[C@@H](CC(C)C)C(=O)N(C)[C@@H](CC(C)C)C(=O)N[C@@H]([C@@H](C)O)C(=O)N[C@@H](Cc2ccccc2)C(=O)N1)C(C)C)C(=O)N1CCCCC1 [DP-936] (A[NMeL][NMePhe(3-Cl)]V[NMeL][NMeL]TFD[NMeA]VP[NMeL]I-Piperidide; lactam N-9) | microsomal CLint at 1 uM: 29 µL/min/mg

Item: CC(C)C[C@H]1C(=O)N(C)[C@@H](C(C)C)C(=O)N[C@@H]([C@@H](C)O)C(=O)N(C)CC(=O)N(C)[C@@H](C)C(=O)N(C)[C@@H](C)C(=O)N[C@@H](C(C)C)C(=O)N[C@H](C(=O)N2CCCCC2)CC(=O)N(C)[C@H](C)C(=O)N(C)[C@@H](C)C(=O)N[C@@H](C)C(=O)N(C)[C@@H](Cc2ccccc2)C(=O)N1C [DP-319] ([dNMeA][NMeA]A[NMeF][NMeL][NMeV]T[Sar][NMeA][NMeA]VD-Piperidide; lactam N-12) | microsomal CLint at 1 uM: 12 µL/min/mg

Hey, just so you know, these numbers are from patent US9409952B2.
